Target: T. thermophilus RNAP holoenzyme (Thermus thermophilus, UniProt Q8RQE8+Q8RQE9)
Assay: inhibition of T. thermophilus RNAP holoenzyme
Settings: unpublished data; read-out: K, inhibition of T. thermophilus RNAP holoenzyme
reported.metric: pKi
Just so you know, pKi here is -log10 of the concentration in molar units; reply with that number alone.

**Query** What value of pKi has been reported for the following compound? CCC/C(C)=C/C=C(\C)C(=O)c1c(O)cc([C@H](C)CC/C=C/NC(=O)OC)oc1=O [Myx, myxopyronin]
**Result** 4.70
